- Test system: Liver Cancer HepG2
- TEST DETAILS: MTT cytotoxicity assay, HepG2
- Assay type: cell-based, human
- EXPERIMENTAL CONDITIONS: 48 h, read-out: IC50 (µM) ± SEM, Liver Cancer HepG2
OBSERVABLE: IC50 (µM)
The response must be a number in µM with no trailing unit.

Sure, the documented IC50 for Cc1cc(=O)oc2cc(OC(=O)/C=C/c3ccccc3)ccc12 is 75.2

----------
- Test system: Normal WISH Cells
- TEST DETAILS: MTT cytotoxicity assay, normal WISH
- Type: cell-based
- EXPERIMENTAL CONDITIONS: 48 h, read-out: IC50 (µM) ± SEM, Normal WISH Cells
OBSERVABLE: IC50 (µM)
Reply with just the number (in µM).

The reported IC50 of the molecule Cc1c(Br)c(=O)oc2c(Br)c(OC(=O)/C=C/c3ccccc3)c(Br)cc12 was 96.8
